All figures here come from the nanobody polyreactivity screen of Harvey et al. (2022).

Assay: yeast display, Sf9 membrane polyspecificity reagent, FACS + sequencing; frameworks hold sequencing errors
measurement_type: polyreactivity (PSR sort gate)

{"columns": ["sequence_record", "measured_result"],
 "data": [
  ["QVQLVESGGGLVQAGGSLRLSCAASGIIFYYYVMGCYRQAPGKERELVAAISRSGGRTRYADSVKGRFTISRDNAKNTVYLQMNSLKPEDTAVYYCAAVGSVNYDADFDYWGQGTQVTVSS", "high polyreactivity"],
  ["QVQLVESGGGLVQAGGSLRLSCAASGRIFLYAMGWYRQAPGKERELVAAINSGGSTNYADSVKGRFTISRDNAKNTVYLQMNSLKPEDTAVYYCAAEVLYWYRYYYWGQGTQVTVSS", "low polyreactivity"],
  ["QVQLVESGGGLVQAGGSLRLSCAASGSIFPIYAMGWYRQAPGKERELVAAITRSDGSTYYADSVKGRFTISRDNAKNTVYLQMNSLNPEDTAVYYCGDYGYWGQGTQVTVSS", "low polyreactivity"],
  ["QVQLVESGGGLVQAGGSLRLSCAASGFSFHRYAMGWYRQAPGKERELVAGITRRSGSTFYADSVKGRFTISRDNAKNTVYLQMNRLKPEDSAVYYCAATVPGLHWIYDYWGQGTQVTVSS", "high polyreactivity"],
  ["QVQLVESWGGLVQAGGRLRLSCAASGNTFWDNAMRWYRQAPGKERELVAAIRWSTVSTHYADSVKGRFTISRDNAKNTVYLQMNSLKPEDTAVYDCAATAYYYYRDKYYGYDYWGQGTHVTVSS", "low polyreactivity"]
]}

---

Assay: yeast display, Sf9 membrane polyspecificity reagent, FACS + sequencing; frameworks hold sequencing errors

{"columns": ["sequence_record", "polyreactivity (PSR sort gate)"],
 "data": [
  ["QVQLVESGGGLVQAGGSLRLSCAASGSTFLRYVMGWYRQAPGKERELVAAIDSGGSTHYADSVKGRFTISRDNAKNTVYLQMNSLKPEDTAVYYCNVDVSSDDWYPSTADFDYWGQGTQVTVSS", "high polyreactivity"],
  ["QVQLVESGGGLVHAGGSLRLSCAASGYIFTRNMGWYRQAPGKERELVAAITWSGGSTYYADSVKGRFTISRDNAKNTVYLQINSLKPEDTAVYYCAADYGWSVGRRYYYWGQGTQVTVSS", "high polyreactivity"]
]}

---

Assay: yeast display, Sf9 membrane polyspecificity reagent, FACS + sequencing; frameworks hold sequencing errors
measurement_type: polyreactivity (PSR sort gate)

{"columns": ["sequence_record", "measured_result"],
 "data": [
  ["QVQLVESGGGLVQAGGSLRLSCAASGSIFSYYAMGWSRQAPGKERELVAAIRRGGSTNYADSVKGRFTISRDNAKNTVYLQMNSLKPEDTAVYYCAASLGWRPSFSYYWGQGTQVTVSS", "high polyreactivity"],
  ["QVQLVESGGGLVQAGGSLRLSCAASGRSFGNYVMGWYRQAPGKERELVAAISRSGGSTYYADSVKGRFTISRDNAKNIVYLQMNSLKPEDTAVYYCNTVTTYDVEYWGQGTQVTVSS", "high polyreactivity"]
]}

---

Test: yeast display, Sf9 membrane polyspecificity reagent, FACS + sequencing; frameworks hold sequencing errors
measurement_type: polyreactivity (PSR sort gate)

{"columns": ["sequence_record", "measured_result"],
 "data": [
  ["QVQLVESGGGLVQAGGSLRLSCAASGRIFTYYAMGWYRQAPGKEREFVAAISRSGGSTYYADSVKGRFTISRDNAKNTVYFQMNSLKPEDTAVYSCAADPPYRGRRGFDHNYWGQGTQVTVSS", "high polyreactivity"],
  ["QFQLLESGGGLVHAGGSLLLSCAASGSTFVRYAMGWYRQAPAKERELVASISSSGSTYYADSVKGRFTISRDNAKNSDYLQMNSLKPEDTSVYYCAIQYGGRYGYWGQGTQVTVSS", "low polyreactivity"],
  ["QVQLVESGGGLVQAGGSLRLSCAASGSIFDLNAMGWYRQAPGKERELVAAISSGGGTYYADSVKGRFTISRDNAKNTVYFQMNSLKPEDTAVYYCNRVTRWTYNYWGQGTQVTVSS", "high polyreactivity"],
  ["QVQLVESGGGLVQAGGSLLLSCAASGIIFRYYAMGWYRQAPGKERELVADISSDGGTYYADSVKGRFTISLDNATNTVYLQMNSLKPEDTAVDYCAADYQFYWHYYYWGQGTQVTVSS", "high polyreactivity"],
  ["QVQLVESGGGLVQAGVSLRLSCAASGFTFSRYGMGWYRQTPGKERELVAAITWSGGNTNYADSVKGRFTISRDNAKNTVYLQMNSLKPEDTAVYYCNAPRGYWSQSHFDYWGQGTQVNVSS", "high polyreactivity"],
  ["QVQLVESGGGLVQAGGSLRLSCAASGSNFTNAMGWYRQAPGKERELVASIDANAGDTHYADSVKGRFTISRDNAKNTVYLQLNSLKPEDTAVYYCNADVTERLWTGEDDYWGQGTQVTVSS", "low polyreactivity"],
  ["QVQLVESGGGLVQAGGSLRLSCAASGSTFQFYAMGWYRQAPGKEREFVAAITTRSGSTYYADSVKGRFTISRDTAKNTVYLQMNSQKPEDTAVYYCAAYIYGHSSDSVRYEYWGQGTQVTVSS", "low polyreactivity"],
  ["QVQLVESGGGLVQAGGSLRLSCAASGFIFPLYAMGWYRQAPGKERELVAAITWRGDTTSYADSVKGRFTISRDNAKNTVYLQKNSLKPEDTAVDYCAAVRYPSGYDYWGQGTQVTVSS", "high polyreactivity"],
  ["QVQLVESGGGLVQAGGRLRLSCAASVGTFRPYAMGWYRQAPGKERELVAAISYTGSTYYADSVKGRFTISRDNAKNTVYLQMNSLKPADTAVYYCAKDFWYPPRFDYWGHGTQVTVSS", "low polyreactivity"],
  ["QVQLVESGGGLVQAGGSLRLSCAASGIIFVSYAMGWYRQAPGKERELVADITSGGRTYYADSVKGRFTISRDNAKNTVYLQMNSLKPEDTAGYYCAATYSYKGRWVWVYYWGQGTQVTVSS", "high polyreactivity"],
  ["QVQLVESGGGLVQSGGSLRLSCAASGIIFCRYAMGWYRQAPGKERELVATITWRGGSTYDADSVKGRFTISRDNAKNTVYLQMNSLKPEDTAVYYCAADNRQSRSFRARAYWGQGNQVTVSS", "low polyreactivity"]
]}
